System: 276233-004-R-J1-PDC KRAS spheroids with HUVEC/MSC, viability
Assay: Anticancer human tumor 276233-004-R-J1-PDC patient-derived colon adenocarcinoma cell line growth inhibition [KRAS2]
Settings: second compound 10 µM; first compound 0.316 µM; stronger effect = lower value
So I've got a bunch of molecules here, and I need their viability, T/C values.
Supply the numeric figure in %, leaving out any unit text.

Query: Value lookup for viability, T/C; key = COC(=O)c1ccc2c(C(=Nc3ccc(N(C)C(=O)CN4CCN(C)CC4)cc3)c3ccccc3)c(O)[nH]c2c1 + COc1cc2nc(C)nc(NC(C)c3cc(N)cc(C(F)(F)F)c3)c2cc1OC1CCOC1
Result: 30.9

Query: Next up: COc1cc(Nc2ncc3c(n2)-c2ccc(Cl)cc2C(c2c(F)cccc2OC)=NC3)ccc1C(=O)O + CC1OCC2(CCN(c3cnc(Sc4ccnc(N)c4Cl)c(N)n3)CC2)C1N
Result: 41.9

Query: Now try COc1cc2nccc(Oc3ccc(NC(=O)C4(C(=O)Nc5ccc(F)cc5)CC4)cc3)c2cc1OC + CC1OCC2(CCN(c3cnc(Sc4ccnc(N)c4Cl)c(N)n3)CC2)C1N .
Result: 56.7

Query: Moving on to the next molecule: O=C(c1cc(Cc2n[nH]c(=O)c3ccccc23)ccc1F)N1CCN(C(=O)C2CC2)CC1 + CC1OCC2(CCN(c3cnc(Sc4ccnc(N)c4Cl)c(N)n3)CC2)C1N
Result: 41.4

Query: What do we get for CCNC(=O)CC1N=C(c2ccc(Cl)cc2)c2cc(OC)ccc2-n2c(C)nnc21 (stereo unspecified) + CC1OCC2(CCN(c3cnc(Sc4ccnc(N)c4Cl)c(N)n3)CC2)C1N ?
Result: 52.2

Query: Similarly, CC1OCC2(CCN(c3cnc(Sc4ccnc(N)c4Cl)c(N)n3)CC2)C1N (stereo unspecified) + COc1cc2nc(C)nc(NC(C)c3cc(N)cc(C(F)(F)F)c3)c2cc1OC1CCOC1 ?
Result: 34.4

###

Test system: 276233-004-R-J1-PDC KRAS spheroids with HUVEC/MSC, viability
Experiment: Anticancer human tumor 276233-004-R-J1-PDC cell line growth inhibition [KRAS2];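 further: cells exposed to agents for seven days before viability read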;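 on viability, T/C: 100% = DMSO vehicle control wells and lower values mean fewer viable cells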
Conditions: second compound 3.16 µM; first compound 1 µM; stronger effect = lower value
Threshold 60%. viability, T/C below it: 1.0. viability, T/C at it or above: 0.0.

Query: I'd appreciate it if you could check whether CCNC(=O)CC1N=C(c2ccc(Cl)cc2)c2cc(OC)ccc2-n2c(C)nnc21 (stereo unspecified) + CC1OCC2(CCN(c3cnc(Sc4ccnc(N)c4Cl)c(N)n3)CC2)C1N has viability, T/C smaller than 60%.
Result: 1.0

Query: How about this molecule: CCN1CCN(Cc2ccc(Nc3ncc(F)c(-c4cc(F)c5nc(C)n(C(C)C)c5c4)n3)nc2)CC1 + C=CC(=O)N1CCN(c2nc(=O)n(-c3c(C)ccnc3C(C)C)c3nc(-c4c(O)cccc4F)c(F)cc23)C(C)C1
Result: 0.0

Query: Could you do the same for Cn1nccc1Nc1nccc(-c2cc3c(s2)C(C)(C)N(CCN2CCOCC2)C3=O)n1 + CNCc1ccccc1-c1csc(C(C)Nc2nc(C)nc3cc(OC)c(OC)cc23)c1 , please?
Result: 1.0

Query: And then COc1cc(Nc2ncc3c(n2)-c2ccc(Cl)cc2C(c2c(F)cccc2OC)=NC3)ccc1C(=O)O + C=CC(=O)N1CCN(c2nc(OCC3CCCN3C)nc3c2CCN(c2cccc4cccc(C)c24)C3)CC1CC#N , what is it?
Result: 1.0

Query: And then CC1OCC2(CCN(c3cnc(Sc4ccnc(N)c4Cl)c(N)n3)CC2)C1N (stereo unspecified) + C=CC(=O)N1CCN(c2nc(=O)n(-c3c(C)ccnc3C(C)C)c3nc(-c4c(O)cccc4F)c(F)cc23)C(C)C1 , what is it?
Result: 0.0

Query: Also need CCNC(=O)CC1N=C(c2ccc(Cl)cc2)c2cc(OC)ccc2-n2c(C)nnc21 (stereo unspecified) + C=CC(=O)N1CCN(c2nc(OCC3CCCN3C)nc3c2CCN(c2cccc4cccc(C)c24)C3)CC1CC#N , thanks.
Result: 1.0

Query: Now give it for COC(=O)c1ccc2c(C(=Nc3ccc(N(C)C(=O)CN4CCN(C)CC4)cc3)c3ccccc3)c(O)[nH]c2c1 + CC1OCC2(CCN(c3cnc(Sc4ccnc(N)c4Cl)c(N)n3)CC2)C1N too.
Result: 1.0

Query: Lookup CC(=O)OC12COC1CC(O)C1(C)C(=O)C(O)C3=C(C)C(OC(=O)C(O)C(NC(=O)OC(C)(C)C)c4ccccc4)CC(O)(C(OC(=O)c4ccccc4)C21)C3(C)C (stereo unspecified) + C=CC(=O)N1CCN(c2nc(=O)n(-c3c(C)ccnc3C(C)C)c3nc(-c4c(O)cccc4F)c(F)cc23)C(C)C1
Result: 0.0

Query: Try the molecule CC1COCCN1c1cc(-c2ccnn2C)c2ccnc(-c3ccn[nH]3)c2n1 (stereo unspecified) + C=CC(=O)N1CCN(c2nc(OCC3CCCN3C)nc3c2CCN(c2cccc4cccc(C)c24)C3)CC1CC#N
Result: 1.0

###

Test system: 276233-004-R-J1-PDC KRAS spheroids with HUVEC/MSC, viability
Experiment: Anticancer human tumor 276233-004-R-J1-PDC cell line growth inhibition [KRAS2];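 further: cells exposed to agents for seven days before viability read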;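 on viability, T/C: 100% = DMSO vehicle control wells and lower values mean fewer viable cells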
Conditions: second compound 0.1 µM; first compound 10 µM; stronger effect = lower value
Task for the reader: assign each of the following compounds its reported viability, T/C.
# unit: % | format: bare number

Query: Look at this compound and give its reported viability, T/C. O=C(c1cc(Cc2n[nH]c(=O)c3ccccc23)ccc1F)N1CCN(C(=O)C2CC2)CC1 + CC1OCC2(CCN(c3cnc(Sc4ccnc(N)c4Cl)c(N)n3)CC2)C1N
Result: 62.5

Query: Also need COc1cc2nccc(Oc3ccc(NC(=O)C4(C(=O)Nc5ccc(F)cc5)CC4)cc3)c2cc1OC + C=CC(=O)N1CCN(c2nc(=O)n(-c3c(C)ccnc3C(C)C)c3nc(-c4c(O)cccc4F)c(F)cc23)C(C)C1 , thanks.
Result: 104

Query: Lookup Cn1nccc1Nc1nccc(-c2cc3c(s2)C(C)(C)N(CCN2CCOCC2)C3=O)n1 + C=CC(=O)N1CCN(c2nc(=O)n(-c3c(C)ccnc3C(C)C)c3nc(-c4c(O)cccc4F)c(F)cc23)C(C)C1
Result: 60.4

Query: Also Cn1nccc1Nc1nccc(-c2cc3c(s2)C(C)(C)N(CCN2CCOCC2)C3=O)n1 + C=CC(=O)N1CCN(c2nc(OCC3CCCN3C)nc3c2CCN(c2cccc4cccc(C)c24)C3)CC1CC#N ?
Result: 52.2

Query: And for CC1OCC2(CCN(c3cnc(Sc4ccnc(N)c4Cl)c(N)n3)CC2)C1N (stereo not given) + COc1cc2nc(C)nc(NC(C)c3cc(N)cc(C(F)(F)F)c3)c2cc1OC1CCOC1 ?
Result: 51.7

###

System: 276233-004-R-J1-PDC KRAS spheroids with HUVEC/MSC, viability
Assay: Anticancer human tumor 276233-004-R-J1-PDC cell line growth inhibition [KRAS2];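 further: cells exposed to agents for seven days before viability read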;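 on viability, T/C: 100% = DMSO vehicle control wells and lower values mean fewer viable cells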
Conditions: second compound 0.1 µM; first compound 0.0316 µM; stronger effect = lower value
Provide the reported viability, T/C of each item.
Dear colleague, please return just the value in %, with no unit written.

Query: Form entry - test system: 276233-004-R-J1-PDC KRAS spheroids with HUVEC/MSC, viability; read-out: viability, T/C; molecule: CCNC(=O)CC1N=C(c2ccc(Cl)cc2)c2cc(OC)ccc2-n2c(C)nnc21 (stereo not given) + C=CC(=O)N1CCN(c2nc(=O)n(-c3c(C)ccnc3C(C)C)c3nc(-c4c(O)cccc4F)c(F)cc23)C(C)C1
Result: 102

Query: Would you kindly repeat that for CCNC(=O)CC1N=C(c2ccc(Cl)cc2)c2cc(OC)ccc2-n2c(C)nnc21 (stereo not given) + CC1OCC2(CCN(c3cnc(Sc4ccnc(N)c4Cl)c(N)n3)CC2)C1N ?
Result: 94.5

Query: Similarly, COc1cc2nccc(Oc3ccc(NC(=O)C4(C(=O)Nc5ccc(F)cc5)CC4)cc3)c2cc1OC + CNCc1ccccc1-c1csc(C(C)Nc2nc(C)nc3cc(OC)c(OC)cc23)c1 ?
Result: 82.3

Query: Try this molecule too: CC1COCCN1c1cc(-c2ccnn2C)c2ccnc(-c3ccn[nH]3)c2n1 (stereo not given) + CNCc1ccccc1-c1csc(C(C)Nc2nc(C)nc3cc(OC)c(OC)cc23)c1
Result: 95.5

Query: CC(C)NCC(C(=O)N1CCN(c2ncnc3c2C(C)CC3O)CC1)c1ccc(Cl)cc1 (stereo not given) + C=CC(=O)N1CCN(c2nc(=O)n(-c3c(C)ccnc3C(C)C)c3nc(-c4c(O)cccc4F)c(F)cc23)C(C)C1 ?
Result: 109

###

System: 276233-004-R-J1-PDC KRAS spheroids with HUVEC/MSC, viability
Test: Anticancer human tumor 276233-004-R-J1-PDC cell line growth inhibition [KRAS2];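 further: cells exposed to agents for seven days before viability read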
Settings: curve of first compound; second compound 3.16 µM
pIC50: −log10 of the molar value.
Kindly state pIC50 for each of the entries shown.

Query: Can you share its pIC50? I mean this compound: CC(=O)OC12COC1CC(O)C1(C)C(=O)C(O)C3=C(C)C(OC(=O)C(O)C(NC(=O)OC(C)(C)C)c4ccccc4)CC(O)(C(OC(=O)c4ccccc4)C21)C3(C)C (stereo not given) + COc1cc2nc(C)nc(NC(C)c3cc(N)cc(C(F)(F)F)c3)c2cc1OC1CCOC1
Result: < 5.50

Query: Next compound: O=C(c1cc(Cc2n[nH]c(=O)c3ccccc23)ccc1F)N1CCN(C(=O)C2CC2)CC1 + C=CC(=O)N1CCN(c2nc(=O)n(-c3c(C)ccnc3C(C)C)c3nc(-c4c(O)cccc4F)c(F)cc23)C(C)C1
Result: < 5.00

Query: Same question, CC(C)NCC(C(=O)N1CCN(c2ncnc3c2C(C)CC3O)CC1)c1ccc(Cl)cc1 (stereo not given) + CNCc1ccccc1-c1csc(C(C)Nc2nc(C)nc3cc(OC)c(OC)cc23)c1 this time
Result: > 7.50

Query: How about CCN1CCN(Cc2ccc(Nc3ncc(F)c(-c4cc(F)c5nc(C)n(C(C)C)c5c4)n3)nc2)CC1 + CC1OCC2(CCN(c3cnc(Sc4ccnc(N)c4Cl)c(N)n3)CC2)C1N ?
Result: < 6.00

Query: What about CN(C)C/C=C/C(=O)Nc1cc2c(Nc3ccc(F)c(Cl)c3)ncnc2cc1O[C@H]1CCOC1 + C=CC(=O)N1CCN(c2nc(=O)n(-c3c(C)ccnc3C(C)C)c3nc(-c4c(O)cccc4F)c(F)cc23)C(C)C1 ?
Result: < 7.00

Query: Lookup COc1cc2nccc(Oc3ccc(NC(=O)C4(C(=O)Nc5ccc(F)cc5)CC4)cc3)c2cc1OC + C=CC(=O)N1CCN(c2nc(=O)n(-c3c(C)ccnc3C(C)C)c3nc(-c4c(O)cccc4F)c(F)cc23)C(C)C1
Result: < 5.00

Query: Similarly, CC1COCCN1c1cc(-c2ccnn2C)c2ccnc(-c3ccn[nH]3)c2n1 (stereo not given) + COc1cc2nc(C)nc(NC(C)c3cc(N)cc(C(F)(F)F)c3)c2cc1OC1CCOC1 ?
Result: 6.32

Query: Entry to check: CCNC(=O)CC1N=C(c2ccc(Cl)cc2)c2cc(OC)ccc2-n2c(C)nnc21 (stereo not given) + C=CC(=O)N1CCN(c2nc(OCC3CCCN3C)nc3c2CCN(c2cccc4cccc(C)c24)C3)CC1CC#N
Result: 6.72

Query: Entry to check: CC1(C)CCC(CN2CCN(c3ccc(C(=O)NS(=O)(=O)c4ccc(NCC5CCOCC5)c([N+](=O)[O-])c4)c(Oc4cnc5[nH]ccc5c4)c3)CC2)=C(c2ccc(Cl)cc2)C1 + CNCc1ccccc1-c1csc(C(C)Nc2nc(C)nc3cc(OC)c(OC)cc23)c1
Result: > 7.50

Query: Could you do the same for CC(=O)Nc1cccc(-n2c(=O)n(C3CC3)c(=O)c3c(Nc4ccc(I)cc4F)n(C)c(=O)c(C)c32)c1 + COc1cc2nc(C)nc(NC(C)c3cc(N)cc(C(F)(F)F)c3)c2cc1OC1CCOC1 , please?
Result: 8.74

Query: Continue with CN(C)C/C=C/C(=O)Nc1cc2c(Nc3ccc(F)c(Cl)c3)ncnc2cc1O[C@H]1CCOC1 + COc1cc2nc(C)nc(NC(C)c3cc(N)cc(C(F)(F)F)c3)c2cc1OC1CCOC1
Result: < 7.00

Query: Would you kindly repeat that for COc1cc2nccc(Oc3ccc(NC(=O)C4(C(=O)Nc5ccc(F)cc5)CC4)cc3)c2cc1OC + COc1cc2nc(C)nc(NC(C)c3cc(N)cc(C(F)(F)F)c3)c2cc1OC1CCOC1 ?
Result: < 5.00

Query: Follow-up entry: O=C(c1cc(Cc2n[nH]c(=O)c3ccccc23)ccc1F)N1CCN(C(=O)C2CC2)CC1 + CNCc1ccccc1-c1csc(C(C)Nc2nc(C)nc3cc(OC)c(OC)cc23)c1
Result: > 7.50

Query: What do we get for CC(C)n1nc(-c2ccc3oc(N)nc3c2)c2c(N)ncnc21 + CNCc1ccccc1-c1csc(C(C)Nc2nc(C)nc3cc(OC)c(OC)cc23)c1 ?
Result: > 9.50

Query: Field entry: CC1COCCN1c1cc(-c2ccnn2C)c2ccnc(-c3ccn[nH]3)c2n1 (stereo not given) + CNCc1ccccc1-c1csc(C(C)Nc2nc(C)nc3cc(OC)c(OC)cc23)c1
Result: > 8.00

Query: Now the compound CCN1CCN(Cc2ccc(Nc3ncc(F)c(-c4cc(F)c5nc(C)n(C(C)C)c5c4)n3)nc2)CC1 + COc1cc2nc(C)nc(NC(C)c3cc(N)cc(C(F)(F)F)c3)c2cc1OC1CCOC1
Result: < 6.00

Query: How about this compound: CC1(C)CCC(CN2CCN(c3ccc(C(=O)NS(=O)(=O)c4ccc(NCC5CCOCC5)c([N+](=O)[O-])c4)c(Oc4cnc5[nH]ccc5c4)c3)CC2)=C(c2ccc(Cl)cc2)C1 + COc1cc2nc(C)nc(NC(C)c3cc(N)cc(C(F)(F)F)c3)c2cc1OC1CCOC1
Result: < 5.00

Query: Repeat with CC1COCCN1c1cc(-c2ccnn2C)c2ccnc(-c3ccn[nH]3)c2n1 (stereo not given) + CC1OCC2(CCN(c3cnc(Sc4ccnc(N)c4Cl)c(N)n3)CC2)C1N
Result: 6.20

Query: Queued: Cn1ncnc1[C@H]1c2n[nH]c(=O)c3cc(F)cc(c23)N[C@@H]1c1ccc(F)cc1 + CNCc1ccccc1-c1csc(C(C)Nc2nc(C)nc3cc(OC)c(OC)cc23)c1
Result: > 9.50

Query: Please give the result for CC(=O)Nc1cccc(-n2c(=O)n(C3CC3)c(=O)c3c(Nc4ccc(I)cc4F)n(C)c(=O)c(C)c32)c1 + CC1OCC2(CCN(c3cnc(Sc4ccnc(N)c4Cl)c(N)n3)CC2)C1N too.
Result: > 10.00
